Test: Cmax in Swiss mouse plasma at 10 mg/kg, iv administered as single bolus dose and measured upto 24 hrs by LC-MS/MS analysis
Format: ADME, organism-based
measurement.kind: Cmax (µg/mL)
Numbers only, in µg/mL.

Recorded Cmax of CC[C@H](C)[C@@H](NC(=O)[C@@H](NC(=O)[C@H](CCC(=O)O)NC(=O)[C@H](Cc1ccccc1)NC(=O)[C@@H](CCN)NC(=O)[C@H](CCN)NC(=O)[C@H](CO)NC(=O)[C@@H](Cc1c[nH]c2ccccc12)NC(=O)[C@@H](CO)NC(=O)CNC(=O)[C@@H](CCN)NC(=O)[C@H](NC(=O)[C@H](C)N)C(C)C)C(C)C)C(=O)N[C@@H](C)C(=O)O , please.
166

----------
Test: Cmax in Swiss mouse liver at 10 mg/kg, iv administered as single bolus dose and measured upto 24 hrs by LC-MS/MS analysis
Format: ADME, organism-based
measurement.kind: Cmax (ng/mL)
One number for each entry, in ng/mL.

Dear colleague, I am looking for the recorded Cmax of the following compound: CC[C@H](C)[C@@H](NC(=O)[C@@H](NC(=O)[C@H](CCC(=O)O)NC(=O)[C@H](Cc1ccccc1)NC(=O)[C@@H](CCN)NC(=O)[C@H](CCN)NC(=O)[C@H](CO)NC(=O)[C@@H](Cc1c[nH]c2ccccc12)NC(=O)[C@@H](CO)NC(=O)CNC(=O)[C@@H](CCN)NC(=O)[C@H](NC(=O)[C@H](C)N)C(C)C)C(C)C)C(=O)N[C@@H](C)C(=O)O
5650

----------
Experiment: Cytotoxicity against human HepG2 cells incubated for 40 hrs by celltiter-glo luminescent cell viability assay
Assay type: toxicity, cell-based
measurement.kind: IC50 at 40 h

Take a look at these entries with their results.
Query (compound): CC[C@H](C)[C@@H](NC(=O)[C@@H](NC(=O)[C@H](CCC(=O)O)NC(=O)[C@H](Cc1ccccc1)NC(=O)[C@@H](CCN)NC(=O)[C@H](CN)NC(=O)[C@H](CO)NC(=O)[C@@H](Cc1c[nH]c2ccccc12)NC(=O)[C@@H](CO)NC(=O)CNC(=O)[C@@H](CCN)NC(=O)[C@H](N)C(C)C)C(C)C)C(=O)N[C@@H](C)C(=O)O ; field requested: IC50 at 40 h
> 170 µg/mL

If you can, please state the reported IC50 at 40 h value of CC[C@H](C)[C@@H](NC(=O)[C@@H](NC(=O)[C@H](CCC(=O)O)NC(=O)[C@H](Cc1cccc2ccccc12)NC(=O)[C@@H](CCN)NC(=O)[C@H](CCN)NC(=O)[C@H](CO)NC(=O)[C@@H](Cc1c[nH]c2ccccc12)NC(=O)[C@@H](CO)NC(=O)CNC(=O)[C@@H](CCN)NC(=O)[C@H](NC(=O)[C@H](C)N)C(C)C)C(C)C)C(=O)N[C@@H](C)C(=O)O .
83 µg/mL

IC50 at 40 h for CC[C@H](C)[C@@H](NC(=O)[C@@H](NC(=O)[C@H](CCC(=O)O)NC(=O)[C@H](Cc1ccccc1)NC(=O)[C@@H](CCN)NC(=O)[C@H](CCN)NC(=O)[C@H](CO)NC(=O)[C@@H](Cc1c[nH]c2ccccc12)NC(=O)[C@@H](CO)NC(=O)CNC(=O)[C@@H](CCN)NC(=O)[C@H](NC(=O)[C@H](C)N)C(C)C)C(C)C)C(=O)N[C@@H](C)C(=O)O ?
> 170 µg/mL

Please go through the list and note IC50 at 40 h for each compound.
1. CC[C@@H](C)[C@@H](NC(=O)[C@@H](NC(=O)[C@H](CCC(=O)O)NC(=O)[C@H](Cc1ccccc1)NC(=O)[C@@H](CCN)NC(=O)[C@H](CCN)NC(=O)[C@H](CO)NC(=O)[C@@H](Cc1c[nH]c2ccccc12)NC(=O)[C@@H](CO)NC(=O)CNC(=O)[C@@H](CCN)NC(=O)[C@H](N)C(C)C)C(C)C)C(=O)N[C@@H](C)C(N)=O
2. CC[C@H](C)[C@@H](NC(=O)[C@@H](NC(=O)[C@H](CCC(=O)O)NC(=O)[C@H](Cc1ccccc1)NC(=O)[C@@H](CCN)NC(=O)[C@H](CCN)NC(=O)[C@H](CO)NC(=O)[C@@H](Cc1c[nH]c2ccccc12)NC(=O)[C@@H](C)NC(=O)CNC(=O)[C@@H](CCN)NC(=O)[C@H](NC(=O)[C@H](C)N)C(C)C)C(C)C)C(=O)N[C@@H](C)C(=O)O
3. CC[C@H](C)[C@@H](NC(=O)[C@@H](NC(=O)[C@H](CCC(=O)O)NC(=O)[C@H](Cc1ccccc1)NC(=O)[C@@H](CCN)NC(=O)[C@H](CCN)NC(=O)[C@H](CO)NC(=O)[C@@H](Cc1c[nH]c2ccccc12)NC(=O)[C@@H](CO)NC(=O)CNC(=O)[C@@H](CCN)NC(=O)[C@H](NC(=O)C(C)(C)N)C(C)C)C(C)C)C(=O)N[C@@H](C)C(=O)O
4. CC[C@H](C)[C@@H](NC(=O)[C@@H](NC(=O)[C@H](CCC(=O)O)NC(=O)[C@H](Cc1ccccc1)NC(=O)[C@@H](CCN)NC(=O)[C@H](CCN)NC(=O)[C@H](CO)NC(=O)[C@@H](Cc1c[nH]c2ccccc12)NC(=O)[C@@H](CO)NC(=O)CNC(=O)[C@@H](CCN)NC(=O)[C@H](N)CCN)C(C)C)C(=O)N[C@@H](C)C(=O)O

1: > 170 µg/mL; 2: 139 µg/mL; 3: 83 µg/mL; 4: > 170 µg/mL

Give IC50 at 40 h for each of the items listed below.
1. CC[C@H](C)[C@@H](NC(=O)[C@@H](NC(=O)[C@H](CCC(=O)O)NC(=O)[C@H](Cc1ccccc1)NC(=O)[C@@H](CCN)NC(=O)[C@H](CCN)NC(=O)[C@H](CO)NC(=O)[C@@H](Cc1c[nH]c2ccccc12)NC(=O)[C@@H](CO)NC(=O)[C@H](CCCCN)NC(=O)[C@@H](CCN)NC(=O)[C@H](NC(=O)[C@H](C)N)C(C)C)C(C)C)C(=O)N[C@@H](C)C(=O)O
2. CC[C@H](C)[C@@H](NC(=O)[C@@H](NC(=O)[C@H](CCC(=O)O)NC(=O)[C@H](Cc1ccccc1)NC(=O)[C@@H](CCN)NC(=O)[C@H](CCN)NC(=O)[C@H](CO)NC(=O)[C@@H](Cc1c[nH]c2ccccc12)NC(=O)[C@@H](CO)NC(=O)CNC(=O)[C@@H](C)NC(=O)[C@H](NC(=O)[C@H](C)N)C(C)C)C(C)C)C(=O)N[C@@H](C)C(=O)O
3. CC[C@H](C)[C@@H](NC(=O)[C@@H](NC(=O)[C@H](CCC(=O)O)NC(=O)[C@H](Cc1ccccc1)NC(=O)[C@@H](CCN)NC(=O)[C@H](C)NC(=O)[C@H](CO)NC(=O)[C@@H](Cc1c[nH]c2ccccc12)NC(=O)[C@@H](CO)NC(=O)CNC(=O)[C@@H](CCN)NC(=O)[C@H](NC(=O)[C@H](C)N)C(C)C)C(C)C)C(=O)N[C@@H](C)C(=O)O
4. CC[C@H](C)[C@@H](NC(=O)[C@@H](NC(=O)[C@H](CCC(=O)O)NC(=O)[C@H](Cc1ccccc1)NC(=O)[C@@H](CCN)NC(=O)[C@H](CCN)NC(=O)[C@H](CO)NC(=O)[C@@H](Cc1c[nH]c2ccccc12)NC(=O)[C@@H](CO)NC(=O)[C@H](C)NC(=O)[C@@H](CCN)NC(=O)[C@H](NC(=O)[C@H](C)N)C(C)C)C(C)C)C(=O)N[C@@H](C)C(=O)O

1. > 170 µg/mL
2. > 170 µg/mL
3. 121 µg/mL
4. 74 µg/mL

----------
Test: Hemolytic activity in human red blood cells at 400 ug/ml incubated for 45 mins by spectrophotometric analysis relative to control
Type: toxicity, cell-based, Erythrocyte
Settings: red blood cells (erythrocytes), at 400 µg/mL, read-out: Activity
measurement.kind: hemolysis at 0.75 h, 400 ug/ml (%)
Give bare numbers, in %.

Illustrative cases are given below, each with its answer.
Entry under review: CC[C@H](C)[C@@H](NC(=O)[C@H](CC1CCCCC1)NC(=O)[C@H](CCC(=O)O)NC(=O)[C@H](Cc1ccccc1)NC(=O)[C@@H](CCN)NC(=O)[C@H](CCN)NC(=O)[C@H](CO)NC(=O)[C@@H](Cc1c[nH]c2ccccc12)NC(=O)[C@@H](CO)NC(=O)CNC(=O)[C@@H](CCN)NC(=O)[C@H](N)C(C)C)C(=O)N[C@@H](C)C(=O)O . Reported hemolysis at 0.75 h, 400 ug/ml?
59.1

What value of hemolysis at 0.75 h, 400 ug/ml has been recorded for this entry: CC[C@@H](C)[C@@H](NC(=O)[C@@H](NC(=O)[C@H](CCC(=O)O)NC(=O)[C@H](Cc1ccccc1)NC(=O)[C@@H](CCN)NC(=O)[C@H](CCN)NC(=O)[C@H](CO)NC(=O)[C@@H](Cc1c[nH]c2ccccc12)NC(=O)[C@@H](CO)NC(=O)CNC(=O)[C@@H](CCN)NC(=O)[C@H](N)C(C)C)C(C)C)C(=O)N[C@@H](C)C(N)=O
0.4

Shifting focus to the molecule that follows.
Need hemolysis at 0.75 h, 400 ug/ml of CC[C@H](C)[C@@H](NC(=O)[C@@H](NC(=O)[C@H](CCC(=O)O)NC(=O)[C@H](Cc1ccccc1)NC(=O)[C@@H](CCN)NC(=O)[C@H](CCN)NC(=O)[C@H](CO)NC(=O)[C@@H](Cc1c[nH]c2ccccc12)NC(=O)[C@@H](CO)NC(=O)CNC(=O)[C@H](N)CCN)C(C)C)C(=O)N[C@@H](C)C(=O)O , thanks.
0
